tested on: U2OS; experiment: Multiplex assay against U2OS; assay type: toxicity, cell-based; conditions: human, 48 h, 10 µM, compound concentration 10 uM, replicate 1
Under this convention, Yes denotes Population Hoechst High Intensity Objects (%) strictly below 9% and No denotes Population Hoechst High Intensity Objects (%) at or above 9%.

Answered examples (5):
{"columns": ["molecule", "assay system", "qualitative label"],
 "data": [
  ["C1=N/C2=N/c3ccc(OCCN4CCCC4)c(c3)COC/C=C\\COCc3cccc(c3)C(=C1)N2", "U2OS", "No"],
  ["CC(C)Oc1ccc(C(=O)N[C@H](CNC(=O)CN(C)C)Cc2ccc(-c3cn4cccc([C@H](C)O)c4n3)cc2)cc1Cl [GSK-923295A]", "U2OS", "No"],
  ["CCC(=O)O[C@]1(C(=O)SCF)[C@H](C)C[C@H]2[C@@H]3C[C@H](F)C4=CC(=O)C=C[C@]4(C)[C@@]3(F)[C@@H](O)C[C@@]21C [FLUTICASONE PROPIONATE]", "U2OS", "Yes"],
  ["CCn1c(-c2nonc2N)nc2cnc(Oc3cccc(NC(=O)c4ccc(OCCN5CCOCC5)cc4)c3)cc21 [GSK-269962A]", "U2OS", "Yes"],
  ["CC(=O)c1cc(-c2cc(C(=O)NC3CC3)ccc2C)c2ncccn12", "U2OS", "Yes"]
]}

Exam item: Determine whether this molecule shows Population Hoechst High Intensity Objects (%) lower than 9% (ties excluded): "CCCn1c(=O)c2[nH]c(C34CC5CC(CC3C5)C4)nc2n(CCC)c1=O"
Marked response: No

Exam item: Bench note: check whether "CC(C)N1CCC(C)(C)c2cc(C#Cc3ccc(C(=O)O)cc3)ccc21" shows Population Hoechst High Intensity Objects (%) below 9%
Marked response: No

====

test system: HEK-293T; assay: Multiplex assay against HEK293T; type: toxicity, cell-based; details: human, 48 h, 1 µM, compound concentration 1 uM, replicate 1
assay endpoint: Population Mitotic Cells (%)
Write the quantity with the unit trailing the number.

Consider the following illustrative entries.
{"columns": ["compound", "assay endpoint", "value reported"],
 "data": [
  ["CCC(=O)O[C@]1(C(=O)SCF)[C@H](C)C[C@H]2[C@@H]3C[C@H](F)C4=CC(=O)C=C[C@]4(C)[C@@]3(F)[C@@H](O)C[C@@]21C [FLUTICASONE PROPIONATE]", "Population Mitotic Cells (%)", "50%"],
  ["Nc1ccc(C(=O)Nc2cccc(-c3nc(N4CCOCC4)c4oc5ncccc5c4n3)c2)cn1", "Population Mitotic Cells (%)", "32%"],
  ["CC(C)N1CCC(C)(C)c2cc(C#Cc3ccc(C(=O)O)cc3)ccc21", "Population Mitotic Cells (%)", "56%"],
  ["Cl.Cl.Nc1ncnc2c1c(-c1cccc(OCc3ccccc3)c1)cn2[C@H]1C[C@@H](CN2CCC2)C1", "Population Mitotic Cells (%)", "25%"],
  ["O=C(O)c1ccc2cc(-c3ccc(O)c(C45CC6CC(CC(C6)C4)C5)c3)ccc2c1 [O-DEMETHYLATED ADAPALENE]", "Population Mitotic Cells (%)", "73%"]
]}

Exam item: // Population Mitotic Cells (%) lookup, key: "CNc1oc(-c2cccc3ccccc23)nc1C#N"
Marked response: 60%

Exam item: Please report the recorded Population Mitotic Cells (%) for CCCn1c(=O)c2[nH]c(C34CC5CC(CC3C5)C4)nc2n(CCC)c1=O [ROLOFYLLINE] .
Marked response: 49%

Exam item: Can you look up the measured Population Mitotic Cells (%) of "Cc1cc2c(cc1N1C(=O)c3cccc4c(CCCO)ccc(c34)C1=O)n(C)c(=O)n2C" for me?
Marked response: 52%

====

Documented Population Fragmented Nuclei (%) across a set of molecules
system: U2OS; experiment: Multiplex assay against U2OS; type: toxicity, cell-based; settings: human, 48 h, 1 µM, compound concentration 1 uM, replicate 2
Field format: number, assumed %, no unit text.

Take a look at these entries with their results.
{"columns": ["molecule", "Population Fragmented Nuclei (%)"],
 "data": [
  ["CCCn1c(=O)c2[nH]c(C34CC5CC(CC3C5)C4)nc2n(CCC)c1=O", 5],
  ["CNc1oc(-c2cccc3ccccc23)nc1C#N", 29],
  ["CCC(=O)O[C@]1(C(=O)SCF)[C@H](C)C[C@H]2[C@@H]3C[C@H](F)C4=CC(=O)C=C[C@]4(C)[C@@]3(F)[C@@H](O)C[C@@]21C [FLUTICASONE PROPIONATE]", 1],
  ["Cc1nc(Cc2cccc(C(F)(F)F)c2)sc1-c1ccc(C(N)=O)nc1 [TP-024n]", 4],
  ["Nc1nc2c(c(N3CCNCC3)n1)CCC1=C2[C@@H]2CCCC[C@@H]2O1", 19]
]}

Exam item: Given the entry "Cl.Cl.Nc1ncnc2c1c(-c1cccc(OCc3ccccc3)c1)cn2[C@H]1C[C@@H](CN2CCC2)C1" , what Population Fragmented Nuclei (%) was observed with U2OS?
Marked response: 8

Exam item: What reported Population Fragmented Nuclei (%) corresponds to "Nc1ccc(C(=O)Nc2cccc(-c3nc(N4CCOCC4)c4oc5ncccc5c4n3)c2)cn1" on U2OS?
Marked response: 28

====

system: HEK-293T; test: Multiplex assay against HEK293T; type: toxicity, cell-based; conditions: human, 24 h, 10 µM, compound concentration 10 uM, replicate 2
The following compounds are listed with their measured Population Mitochondria Different-Phenotype (%) values.
Write it as a number; the unit % goes unstated.

{"columns": ["compound", "value reported"],
 "data": [
  ["CN(C)CCOc1ccc(-c2nc(-c3ccncc3)c(-c3ccc4c(c3)CC/C4=N\\O)[nH]2)cc1", 1],
  ["CN(C)C/C=C/C(=O)Nc1cc2c(Nc3ccc(F)c(Cl)c3)ncnc2cc1O[C@H]1CCOC1.O=C(O)/C=C\\C(=O)O.O=C(O)/C=C\\C(=O)O [AFATINIB DIMALEATE]", 69],
  ["Nc1ccc(C(=O)Nc2cccc(-c3nc(N4CCOCC4)c4oc5ncccc5c4n3)c2)cn1", 81]
]}

Exam item: Find the recorded Population Mitochondria Different-Phenotype (%) belonging to "Cc1cn(-c2cc(NC(=O)c3ccc4c(c3)CN(c3cncnc3)C[C@@H]4C)cc(C(F)(F)F)c2)cn1" and report it.
Marked response: 7

Exam item: What does the data say about its Population Mitochondria Different-Phenotype (%)? Entry: "Cc1cc2c(cc1N1C(=O)c3cccc4c(CCCO)ccc(c34)C1=O)n(C)c(=O)n2C"
Marked response: 71

Exam item: Reported Population Mitochondria Different-Phenotype (%) for "Nc1nc2c(c(N3CCNCC3)n1)CCC1=C2[C@@H]2CCCC[C@@H]2O1" : what is it?
Marked response: 100

Exam item: Item "CC(C)(C)c1cnc(CSc2cnc(NC(=O)C3CCNCC3)s2)o1" has what recorded Population Mitochondria Different-Phenotype (%)?
Marked response: 54

Exam item: Value lookup for Population Mitochondria Different-Phenotype (%); key = "CCc1cc2c(cc1CC)CC(NC[C@H](O)c1ccc(O)c3[nH]c(=O)ccc13)C2"
Marked response: 97

Exam item: Need Population Mitochondria Different-Phenotype (%) of "O=C(O)c1ccc2cc(-c3ccc(O)c(C45CC6CC(CC(C6)C4)C5)c3)ccc2c1" , thanks.
Marked response: 17

Exam item: Please give the measured Population Mitochondria Different-Phenotype (%) for this compound: Cc1nc(Cc2cccc(C(F)(F)F)c2)sc1-c1ccc(C(N)=O)nc1 [TP-024n]
Marked response: 65

Exam item: // query Population Mitochondria Different-Phenotype (%) value for entry "CNc1oc(-c2cccc3ccccc23)nc1C#N"
Marked response: 1

Exam item: Given the compound "COc1cc2c(Nc3ccc(NC(=O)c4ccccc4)cc3)ncnc2cc1OCCCN1CCOCC1" , what is its reported Population Mitochondria Different-Phenotype (%)?
Marked response: 3

Exam item: # Population Mitochondria Different-Phenotype (%) lookup, item "CCOc1cc2ncc(C#N)c(Nc3ccc(OCc4cccc(F)c4)c(Cl)c3)c2cc1NC(=O)/C=C/CN(C)C"
Marked response: 9

Exam item: Using the record for CCn1c(-c2nonc2N)nc2cnc(Oc3cccc(NC(=O)c4ccc(OCCN5CCOCC5)cc4)c3)cc21 [GSK-269962A] , report its Population Mitochondria Different-Phenotype (%).
Marked response: 87

Exam item: Return reported Population Mitochondria Different-Phenotype (%); argument: CCC(=O)O[C@]1(C(=O)SCF)[C@H](C)C[C@H]2[C@@H]3C[C@H](F)C4=CC(=O)C=C[C@]4(C)[C@@]3(F)[C@@H](O)C[C@@]21C [FLUTICASONE PROPIONATE]
Marked response: 43

Exam item: Dear colleague, I am looking for the recorded Population Mitochondria Different-Phenotype (%) of the following compound: "COc1cc2c(NC3CCN(C(C)C)CC3)nc(N3CCC(F)(F)CC3)nc2cc1OCCCN1CCCC1"
Marked response: 92

Exam item: Given "CC(=O)c1cc(-c2cc(C(=O)NC3CC3)ccc2C)c2ncccn12" , state its recorded Population Mitochondria Different-Phenotype (%).
Marked response: 33

The reported measurements were obtained from ChEMBL document CHEMBL4689842.
